Test system: BJeLR
assay.method.text: Modulatory profiling: Alamar Blue viability, lethal compound cotreated with death modulator (EC50, AUC)
Format: cell-based, human
Parameters: unit not given beside the values
condition.description: BJeLR cells; lethal compound cotreated with modulator Boc D; modulatory profile value (AUC)
Where a SMILES comes first, the peptide text is derived from it. The star is where a group is joined. Cbz = O=C(OCc1ccccc1)*
attribute.measured: AUC, modulator BJ.Boc D

molecule	attribute.measured	result
O=C(CCl)N(c1ccccc1)c1c[nH]c2ccccc12	AUC, modulator BJ.Boc D	−0.003228
C(=N\Nc1nc2ccccc2s1)/c1ccccn1	AUC, modulator BJ.Boc D	0.0184
O=S(=O)(c1ccc2c(c1)C(=NO)c1cc(S(=O)(=O)N3CCCCC3)ccc1-2)N1CCCCC1	AUC, modulator BJ.Boc D	−0.01043
[O-][N+]1=c2ccc(Nc3ccccc3)cc2=NC12CCCCC2	AUC, modulator BJ.Boc D	−0.03146
CC(C)C[C@@H](C=O)NC(=O)[C@H](CC(C)C)NC(=O)[C@H](CC(C)C)NC(=O)OCc1ccccc1 [MG132, reference compound] (Cbz-Leu-Leu-Leu-aldehyde)	AUC, modulator BJ.Boc D	0.04216
CC[C@@]1(O)C(=O)OCc2c1cc1n(c2=O)Cc2cc3ccccc3nc2-1	AUC, modulator BJ.Boc D	0.07983
C/C(=N\Nc1ncc(Cl)cc1Cl)c1ccccn1	AUC, modulator BJ.Boc D	0.01108
COc1cc([C@@H]2c3cc4c(cc3[C@@H](O[C@@H]3O[C@@H]5CO[C@@H](C)O[C@H]5[C@H](O)[C@H]3O)[C@H]3COC(=O)[C@H]23)OCO4)cc(OC)c1O [Etoposide]	AUC, modulator BJ.Boc D	0.0612
CN(C)CCCOS(=O)(=O)c1ccc(N2CCC(c3ccc(Cl)cc3)=N2)cc1	AUC, modulator BJ.Boc D	−0.05607
Cc1cccc(Cn2ncc(Cl)c(Cl)c2=O)c1	AUC, modulator BJ.Boc D	0.02626
CN(C)CCNC(=O)c1cc2c(s1)-c1ccc(Cl)cc1SC2	AUC, modulator BJ.Boc D	−0.01499
CC1=CC(C)(C)Nc2ccc(OC(=O)c3cccnc3)cc21	AUC, modulator BJ.Boc D	0.05397
N/C(Cc1ccc(Cl)cc1)=N\OC(=O)c1cccc2ccccc12	AUC, modulator BJ.Boc D	0.002412
COc1ccc(C(=O)C(CN2CCCC2)c2ccccc2)cc1 (stereo not drawn)	AUC, modulator BJ.Boc D	0.02672
C[C@@H]1C[C@@H]([C@H](O)CC2CC(=O)NC(=O)C2)C(=O)[C@@H](C)C1 [cycloheximide, Cycloheximide, reference compound]	AUC, modulator BJ.Boc D	0.02242
CCC(C(NNC(=O)c1ccc(C(F)(F)F)cc1)c1ccc(C(F)(F)F)cc1)[N+](=O)O (stereo not drawn)	AUC, modulator BJ.Boc D	−0.01445
CC1=CC(C)(C)Nc2ccc(OC(=O)c3ccco3)cc21	AUC, modulator BJ.Boc D	−0.03808
C=CCC1(Cl)C(=O)C(Cl)=C(n2ccnc2)C1(OC)OC (stereo not drawn)	AUC, modulator BJ.Boc D	0.03237
